These measurements were taken from patent US9187430B2.

# Protocol Notes: Solubility test (thermodynamic solubility, HPLC external standard)
# Type: physicochemical
# Experimental Context: aqueous buffer, thermodynamic from solid; pH=7.4 phosphate buffer, 25° C., shaken 24 hours; read-out: Water Solubility (PH = 7.4)
# Protocol: In this test, excess amount of test sample was added into pH=7.4 phosphate buffer. Ultrasonic was performed for 30 min until the drug no longer dissolved. […] Quantitative analysis of compound in filtrate using external standard method is performed according to “Appendix VD High Performance Liquid Chromatography, Part II of Pharmacopeia 2010,” and the sample thermodynamic solubility in pH=7.4 phosphate buffered solution was determined. […]
Consider the following compounds and their measured solubility at 24 h readings.
Only the number, expressed in µg/mL, is required.

Field: example entries. Status: answers known.
compound="O=C(c1cc(Cc2n[nH]c(=O)c3ccccc23)ccc1F)N1CCN(C(=O)C2CC2)CC1 [AZD-2281, reference compound]" quantitative_readout=531
compound=CC(C)(C)C(=O)N1CCN(C(=O)c2cc(Oc3n[nH]c(=O)c4ccccc34)ccc2F)CC1 quantitative_readout=602

Please find the next compound below.
Please fill in: solubility at 24 h reported for NC1(C(=O)N2CCN(C(=O)c3cc(Oc4n[nH]c(=O)c5ccccc45)ccc3F)CC2)CC1 = 671
